Molecular target: UniProt P25116
Sequence (P25116 22-425): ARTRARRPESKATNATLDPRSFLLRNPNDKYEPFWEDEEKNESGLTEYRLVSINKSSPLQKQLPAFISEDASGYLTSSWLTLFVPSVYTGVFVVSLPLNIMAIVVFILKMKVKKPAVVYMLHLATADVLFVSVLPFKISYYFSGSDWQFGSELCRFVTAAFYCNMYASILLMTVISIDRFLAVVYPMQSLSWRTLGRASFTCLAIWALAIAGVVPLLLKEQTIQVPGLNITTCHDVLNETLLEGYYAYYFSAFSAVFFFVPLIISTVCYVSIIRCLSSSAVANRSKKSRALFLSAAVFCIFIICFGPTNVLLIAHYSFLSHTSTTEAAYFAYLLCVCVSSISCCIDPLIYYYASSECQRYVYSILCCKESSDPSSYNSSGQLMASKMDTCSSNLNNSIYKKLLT
Assay: Par-1 FLIPR assay (calcium, HEK 293 cells, PAR1 activating peptide)
Details: PAR1 selective receptor-activating peptide at 80% activation
OBSERVED PROPERTY: IC50 (nM)

I = C[C@H]1OC(=O)[C@]2(NCc3cncs3)CC(F)(F)[C@@H](C)[C@H](/C=C/c3ccc(-c4ccccc4C#N)cn3)[C@H]12 [Example 43]
II = COC(=O)[C@@]12CC(F)(F)[C@@H](C)[C@H](/C=C/c3ccc(-c4cccc(F)c4)cn3)[C@@H]1[C@@H](C)OC2=O [Example 11]
III = C[C@H]1OC(=O)[C@]2(S(C)(=O)=O)CC(F)(F)[C@@H](C)[C@H](/C=C/c3ccc(-c4ccccc4C#N)cn3)[C@H]12 [Example 70]
**Query** Sort ascending by IC50: all records listed above. Please respond with the labels ordered as the question requires.
**Result** I, II, III
(I: 1.3 nM, II: 3.4 nM, III: 15.6 nM)
